Entries below carry reported Approximate therapeutic index on rats.

*Q* Given the entry CC#CCOC(=O)c1c(F)ncn1[C@H](C)c1ccccc1 , report its measured Approximate therapeutic index.
*A* >17

*Q* Quick check: Approximate therapeutic index of C[C@H](c1ccccc1)n1cncc1C(=O)OC1(C2CO2)CCC1 (some centres unmarked) ?
*A* >22

*Q* Data request, read-out Approximate therapeutic index, for C[C@H](c1ccccc1)n1cncc1C(=O)OC(C)(C)C
*A* >14

*Q* Entry C[C@H](c1ccccc1)n1cncc1C(=O)OC1(C)COC1 : reported Approximate therapeutic index = ?
*A* >13

*Q* Give its Approximate therapeutic index value. Item: CC(OC(=O)c1cncn1[C@H](C)c1ccccc1)C1CO1 (some centres unmarked)
*A* >10

Recorded values, source patent US11434205B2.
